test: Presence of cannabinoids in exhaled breath before and after smoking (LC-HRMS); assay type: in vivo, human; conditions: Baseline (Pre-smoking)
parameter: Presence in exhaled breath, Percent (%) Positivity

| molecule | value observed |
| --- | --- |
| CCCc1cc(O)c2c(c1)OC(C)(C)[C@@H]1CCC(C)=C[C@@H]21 [Δ^9-THCV, Δ^9-tetrahydrocannabivarin] | (0%) |
| CCCCCc1cc(O)c2c(c1)OC(C)(CCC=C(C)C)C=C2 (centres unmarked) [CBC, cannabichromene] | (0%) |

###

test: Stability of target analytes in the breath collection device; assay type: physicochemical; details: Day 30, breath collection device
Analyte Stability (%) at Room Temperature (20-25° C.) overview
parameter: Analyte Stability (%) at Room Temperature (20-25° C.)

| compound | value observed |
| --- | --- |
| CCCCCc1cc(O)c(C/C=C(\C)CCC=C(C)C)c(O)c1 [CBG, cannabigerol] | 56.5 |
| CCCCCc1cc(O)c2c(c1)OC(C)(C)[C@@H]1CCC(C)=C[C@@H]21 [Δ^9-THC, Δ^9-tetrahydrocannabinol] | 55.6 |
| CCCCCc1cc(O)c2c(c1)OC(C)(CCC=C(C)C)C=C2 (stereo not drawn) [CBC, cannabichromene] | 75.6 |
| CCCCCc1cc(O)c2c(c1)OC(C)(C)c1ccc(C)cc1-2 [CBN, cannabinol] | 74.4 |
| CCCCCc1cc(O)c(C/C=C(\C)CCC=C(C)C)c(O)c1C(=O)O [CBGA, cannabigerolic acid] | 114.3 |
| CCCc1cc(O)c2c(c1)OC(C)(C)[C@@H]1CCC(C)=C[C@@H]21 [Δ^9-THCV, Δ^9-tetrahydrocannabivarin] | 47.1 |

###

test: Stability of target analytes in the breath collection device; assay type: physicochemical; conditions: Day 10, breath collection device
parameter: Analyte Stability (%) at Room Temperature (20-25° C.)

| molecule | value observed |
| --- | --- |
| CCCCCc1cc(O)c2c(c1)OC(C)(CCC=C(C)C)C=C2 (stereo not drawn) [CBC, cannabichromene] | 89.9 |
| CCCCCc1cc(O)c2c(c1)OC(C)(C)[C@@H]1CCC(C)=C[C@@H]21 [Δ^9-THC, Δ^9-tetrahydrocannabinol] | 82.9 |
| CCCCCc1cc(O)c(C/C=C(\C)CCC=C(C)C)c(O)c1C(=O)O [CBGA, cannabigerolic acid] | 110.4 |
| CCCCCc1cc(O)c2c(c1)OC(C)(C)c1ccc(C)cc1-2 [CBN, cannabinol] | 107.3 |
| CCCCCc1cc(O)c(C/C=C(\C)CCC=C(C)C)c(O)c1 [CBG, cannabigerol] | 97.8 |
| CCCc1cc(O)c2c(c1)OC(C)(C)[C@@H]1CCC(C)=C[C@@H]21 [Δ^9-THCV, Δ^9-tetrahydrocannabivarin] | 69.8 |

###

experiment: Presence of cannabinoids in exhaled breath before and after smoking (LC-HRMS); type: in vivo, human; conditions: Baseline (Pre-smoking)
Entries and their measured Presence in exhaled breath, positive/evaluable subjects follow.
parameter: Presence in exhaled breath, positive/evaluable subjects

| compound | value observed |
| --- | --- |
| CCCCCc1cc(O)c2c(c1)OC(C)(CCC=C(C)C)C=C2 (stereo not drawn) | 0/34 |
| CCCc1cc(O)c2c(c1)OC(C)(C)[C@@H]1CCC(C)=C[C@@H]21 [Δ^9-THCV, Δ^9-tetrahydrocannabivarin] | 0/34 |
| CCCCCc1cc(O)c(C/C=C(\C)CCC=C(C)C)c(O)c1 | 2/34 |
| CCCCCc1cc(O)c(C/C=C(\C)CCC=C(C)C)c(O)c1C(=O)O | 4/34 |
| CCCCCc1cc(O)c2c(c1)OC(C)(C)c1ccc(C)cc1-2 | 1/34 |
| CCCCCc1cc(O)c2c(c1)OC(C)(C)[C@@H]1CCC(C)=C[C@@H]21 [Δ^9-THC, Δ^9-tetrahydrocannabinol] | 23/34 |
